The measurements presented in this section are drawn from patent US20070149763A1.

Biological target: BACE (recombinant human BACE catalytic domain, expressed in CHO cells as BACE-T-IgG, IgG1 removed with thrombin) (human) (UniProt P56817)
Sequence (P56817 43-460 limits assumed, form in doubt): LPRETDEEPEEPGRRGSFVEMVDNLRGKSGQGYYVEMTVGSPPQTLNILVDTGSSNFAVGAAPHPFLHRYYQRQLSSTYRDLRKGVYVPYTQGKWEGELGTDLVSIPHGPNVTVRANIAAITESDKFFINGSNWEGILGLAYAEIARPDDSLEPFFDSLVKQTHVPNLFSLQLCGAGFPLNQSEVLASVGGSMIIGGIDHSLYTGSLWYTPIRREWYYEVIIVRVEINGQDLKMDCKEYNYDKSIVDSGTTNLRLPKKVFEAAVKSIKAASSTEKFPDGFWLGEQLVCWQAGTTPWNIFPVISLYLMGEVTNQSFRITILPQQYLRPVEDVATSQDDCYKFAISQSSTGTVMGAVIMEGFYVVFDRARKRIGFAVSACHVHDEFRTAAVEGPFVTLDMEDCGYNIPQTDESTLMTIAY
Experiment: ITC, pH 5.3, 37° C., peptide titrated into CHO BACE pre-incubated with a 10-fold excess of OM99-2
propertyLabel: pKd
Would you please state pKd, meaning minus log10 of the concentration in mol/L, as a bare number?

Enquiry: Would you kindly share the measured pKd for Ac-NLTTYPYFIPLP-NH2 […] ?
Return: 6.55
